Origin of the recorded values: patent US20260042755A1

tested_on: GPR6 (Homo sapiens, UniProt P46095)
Construct: expressed in transfected cells; host or cells: CHO cells
Sequence (P46095 whole entry): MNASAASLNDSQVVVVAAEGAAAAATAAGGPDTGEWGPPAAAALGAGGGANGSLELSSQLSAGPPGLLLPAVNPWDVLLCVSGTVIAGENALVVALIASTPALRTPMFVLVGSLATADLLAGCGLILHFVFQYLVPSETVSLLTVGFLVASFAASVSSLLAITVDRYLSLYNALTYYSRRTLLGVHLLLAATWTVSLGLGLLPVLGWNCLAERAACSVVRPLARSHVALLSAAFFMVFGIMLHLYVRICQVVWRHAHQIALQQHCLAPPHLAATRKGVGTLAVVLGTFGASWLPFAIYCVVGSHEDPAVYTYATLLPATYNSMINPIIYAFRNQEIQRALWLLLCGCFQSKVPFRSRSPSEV
assay_name: GPR6 antagonist functional cAMP assay (LANCE Ultra cAMP TR-FRET, CHO cells stably expressing GPR6)
Assay type: cell-based
stated_conditions: CHO cells stably expressing GPR6, cAMP assay (Example 24)
Kindly state IC50 for each of the entries shown.

Respectfully, I request IC50 for each entry included below.
1. COC[C@@H]1CN(Cc2ccc(F)cc2F)CCN1c1nc2c(nc1-c1cnn(C)c1)CN(C(C)=O)CC2 (single isomer, unassigned) [Compound 244]
2. CC(C)(O)C(=O)N1CCc2nc(N3CCC(Oc4ccc(F)cc4F)CC3)c(-c3cn[nH]c3)nc2C1 [Compound 175]
3. CC(=O)N1CCc2nc(N3CCC(Oc4ccc(F)cc4F)CC3)c(-c3ccc(F)c(=O)[nH]3)nc2C1 [Compound 105]
4. C[C@@H]1CN(Cc2ccc(F)cc2F)CCN1c1nc2ccncc2nc1-c1cnn(C)c1 (single isomer, unassigned) [Compound 224]

["1000 to 30000 nM", "100 to 1000 nM", "1000 to 30000 nM", "1000 to 30000 nM"]
